System: HB3
Assay: qHTS profiling for inhibitors of Plasmodium falciparum proliferation (AID 504749); further: nearly all actives have a fitted effect of over 60% in size
Settings: P. falciparum in erythrocytes, SYBR Green DNA, 72 h; series mostly up to 28.7 µM
Results filed as inconclusive are left out. Activity calls are given as the source filed them. The call rests on the fitted dose curve; in most records, active means well fitted inhibition curve with a large enough effect; inconclusive means small, poorly fitted or top-dose-only effect; inactive means flat fitted curve, though single readings scatter.
Thanks in advance; please answer with one of these: active, inactive

Prompt: Please share the test call associated with CC(Cc1ccccc1)NCc1ccccc1Cl (centres undefined) .
Response: inactive

Prompt: Recorded call for `CNC(=O)Oc1cccc2ccccc12` ?
Response: inactive

Prompt: Returns: the outcome recorded for `CCC(=O)O[C@H]1CC[C@H]2[C@@H]3CCC4=CC(=O)CC[C@]4(C)[C@H]3CC[C@]12C` in this assay.
Response: inactive

Prompt: Could you please tell me the result logged for `CN(C)C(=S)SSC(=S)N(C)C` in this assay?
Response: active

Prompt: Which outcome was entered for the compound `CCCCCCCCCCCC[N+](C)(C)CCOc1ccccc1` in this test?
Response: active

Prompt: GET /call?item= `CCCCCCCCC(=O)NCc1ccc(O)c(OC)c1` returns the recorded outcome of this test.
Response: inactive

Prompt: # lookup: test call for `COP(=O)(OC)OC=C(Cl)Cl`
Response: inactive

Prompt: Name the outcome recorded for `O=c1n(Cl)c(=O)n(Cl)c(=O)n1Cl` in the assay.
Response: inactive

Prompt: // outcome(item) with item = `NCc1cccnc1`
Response: inactive

Prompt: Returns: the outcome recorded for `Cc1ccc(N=CN(C)C=Nc2ccc(C)cc2C)c(C)c1` in this assay.
Response: inactive

Prompt: For this compound, state the assay outcome: `CC(C)(O)C(Cl)(Cl)Cl`
Response: active

Prompt: Kindly provide the recorded test outcome for the following compound: `c1ccc2nc(N3CCNCC3)ccc2c1`
Response: inactive

Prompt: Each compound tested received a call. Report the one for `CCS(=O)(=O)C(C)(C)S(=O)(=O)CC` .
Response: inactive

Prompt: Check the results log: what was the call for CC(C)NCC(O)c1ccc(N)c(C#N)c1 (centres undefined) ?
Response: inactive
